- study_system: the molecule itself
- assay_name: oligomeric state of the purified design, and SAXS; antiparallel homodimer
metric: binding result

[[record]]
protein = "2L6Hanti_1 (designed binder, Monomer subunit (three helices) of a designed left-handed antiparallel homodimer; entries pair it with itself) SDYLRLATEHNKLAVEANRLAIELAKSAVELAETDPSKTALEHAELAARLLEMMVQFTKAAQELTREAIRKEGRNEESEKVLRKSKEAYKESEKALEDARRLLDELRKKGS"
result = "binds"

[[record]]
protein = "2L6Hanti_2 (designed binder, Monomer subunit of a designed left-handed antiparallel homodimer; entries pair it with itself) SEELRKAAENNELAVRLAEAALRMARSALHLFEENPSDEMLKFLELAMEVAKMAAELLKASLKMLKKAAEERGSDESVKYLADKSRDIMRQITEELKKLEEEAKRAQKRGS"
result = "binds"

[[record]]
protein = "2L6Hanti_5 (designed binder, Monomer subunit of a designed left-handed antiparallel homodimer; entries pair it with itself) TDVLRIAAENLKAAVELAKAALEMAKSAIEIAKTLTEDDEALKFARAAAEVLRMAAKLLKLSIELARKAAEEEGSDDEVRYILDEARKQADELREALKKVDEIMKELDKRGS"
result = "binds"

